protein stability index values for the variants below.
B1: FAM9B (parent)
chain: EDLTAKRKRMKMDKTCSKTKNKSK

- Variants of: B1
- method-description: protein stability index of a GFP-peptide fusion (GPS, HEK-293T) (PSI 1-6); higher = more stable;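 further: lentivirally expressed fusions sorted by FACS into six bins by GFP to DsRed ratio, PSI derived from sequencing read proportions per bin multiplied by bin number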
- assay-context: c terminus: a fixed tail appended
I only need the number, thanks.

Below, each entry is followed by its recorded protein stability index result.
S23Q : 5.1
K18A : 4.86
K24M : 4.96
E1T : 4.91
L3M : 5.13

protein stability index measured on E1K = 4.89

protein stability index measured on D2H = 5.01
